Assay Target: Peroxisome proliferator-activated receptor delta (Homo sapiens) (UniProt Q03181)
Sequence (Q03181 whole entry): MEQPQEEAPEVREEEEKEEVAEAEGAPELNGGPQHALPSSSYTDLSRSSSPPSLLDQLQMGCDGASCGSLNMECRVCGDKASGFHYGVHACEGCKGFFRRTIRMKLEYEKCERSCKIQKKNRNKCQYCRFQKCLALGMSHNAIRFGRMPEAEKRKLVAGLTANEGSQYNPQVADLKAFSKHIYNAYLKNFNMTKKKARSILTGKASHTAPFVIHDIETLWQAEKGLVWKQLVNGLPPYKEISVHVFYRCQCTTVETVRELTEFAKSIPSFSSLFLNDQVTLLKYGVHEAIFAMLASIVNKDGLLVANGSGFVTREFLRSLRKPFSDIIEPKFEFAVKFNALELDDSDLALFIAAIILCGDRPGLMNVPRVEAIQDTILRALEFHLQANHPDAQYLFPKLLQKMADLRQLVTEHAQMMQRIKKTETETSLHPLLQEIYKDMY
Method Description: Transactivation of PPARdelta (unknown origin) expressed in HEK293A cells after 16 to 18 hrs by luciferase reporter assay
Type: cell-based
Condition Context: HEK293-A
Activity calls are given as the source filed them. No cut-off for these calls is given here.

Molecule: CCCC(Sc1nc2cc(Cl)ccc2s1)C(=O)NS(=O)(=O)c1ccc(NC(C)=O)cc1 (stereo not drawn)
Activity: inactive

Molecule: CCCC(Sc1nc2cc(Cl)ccc2s1)C(=O)NS(=O)(=O)c1ccc(C)cc1 (stereo not drawn)
Activity: inactive

Molecule: CCCC(Sc1nc2cc(Cl)ccc2s1)C(=O)NS(=O)(=O)c1ccc(Cl)cc1 (stereo not drawn)
Activity: inactive
